Entry source: PubChem BioAssay

# assay.procedure: modulators of S6 phosphorylation in cells, primary screen, cell-based, A549, cytoblot, luminescence, serum-stimulated (AID 1158);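 further: serum-stimulated A549 lung adenocarcinoma cells; signal is phosphorylated S6 detected by cytoblot immunostaining with HRP secondary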
# protocol.conditions: A549 phospho-S6 cytoblot, 5 h, higher = more signal
Label true for high-side z-score (at or above -0.4) and false for low-side z-score (below it).

[
  {
    "molecule": "CCCCN1CC=CC23O[C@@H]4C=CCCOC(=O)C4[C@H]2C(=O)N(CCO)[C@@H]3C1=O (stereo partly drawn)",
    "class": "true"
  },
  {
    "molecule": "COc1ccc(C(=O)Nc2cccc(CN3C(=O)[C@]4(O[C@H](CC(=O)N(CCO)Cc5ccccc5)[C@@H]([Si](C)(C)c5ccc(OC)cc5)[C@@H]4C)c4ccccc43)c2)cc1",
    "class": "true"
  },
  {
    "molecule": "O=C1OCCC/C=C\\[C@H]2OC34C=CCN(Cc5ccccc5)C(=O)[C@H]3N(CCO)C(=O)[C@@H]4C12 (stereo partly drawn)",
    "class": "true"
  },
  {
    "molecule": "COc1c(C)cc(-c2nc(-c3ccccc3)c3c(c2C)CO[Si]3(C(C)C)C(C)C)cc1C",
    "class": "true"
  },
  {
    "molecule": "O=C1NC(=O)C2C1C=CC(C(O)C(c1ccccc1)c1ccccc1)N2Nc1ccccn1 (stereo not drawn)",
    "class": "false"
  },
  {
    "molecule": "Cc1c(NC(=O)/C(C#N)=C/C=C/c2ccc([N+](=O)[O-])cc2)c(=O)n(-c2ccccc2)n1C",
    "class": "true"
  }
]

Now look at this one.
Is z-score at least -0.4? Consider COc1ccc(-c2cc3c(c(CCc4ccccc4)n2)[Si](C(C)C)(C(C)C)O[C@H]3c2ccccc2)cn1
false
